Each entry below carries its reported EC50.
# measurement_target: Neuropeptide Y receptor type 2 (Homo sapiens, UniProt P49146)
# Sequence (P49146 whole entry): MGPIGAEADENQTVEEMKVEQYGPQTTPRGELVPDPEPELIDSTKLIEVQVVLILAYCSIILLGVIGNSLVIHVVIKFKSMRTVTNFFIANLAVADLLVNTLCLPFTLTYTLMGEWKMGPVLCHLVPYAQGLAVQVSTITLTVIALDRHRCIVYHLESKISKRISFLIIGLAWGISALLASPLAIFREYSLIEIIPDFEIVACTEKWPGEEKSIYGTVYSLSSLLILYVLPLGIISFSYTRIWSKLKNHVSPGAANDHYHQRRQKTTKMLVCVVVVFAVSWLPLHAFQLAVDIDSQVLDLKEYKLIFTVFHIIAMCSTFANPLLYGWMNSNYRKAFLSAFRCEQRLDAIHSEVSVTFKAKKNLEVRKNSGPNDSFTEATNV
# measurement_protocol: Agonist activity at human NPY2 receptor in KAN-TS cells by [35S]GTP-gamma-S binding assay
# Type: functional, cell-based

# substance, EC50, nM
measured = [
    ("Ac-LRHYLNLLTRQRYC-NH2", 160),
    ("Ac-CLRHYLNLLTRQRY-NH2", 33),
    ("Ac-LRHYLNLLTRQRY-NH2", 6),
]
